assay: Cell viability; assay type: cell-based; conditions: human, HUVEC cells
Could you please report measured IC50 at 24 h for the items listed next?

Look at each molecule and report its IC50 at 24 h.
1. CCCCCCOc1c(OC)cc(C(=O)O)cc1OC
2. CCCOc1c(OC)cc(C(=O)O)cc1OC

Result ::
> 100 µM
> 100 µM

----------
experiment: Lipoperoxidation; details: SO + additive 200 ppm, 220 °C
Assign Reduction in secondary oxidation (TBARS) in comparison with SOcontrol to each entry below.
Give bare numbers, in times.

[[record]]
smiles_str = "CCCCCOc1ccc(/C=C/C(=O)O)cc1OC"
measured_number = 6

[[record]]
smiles_str = "CCCOc1c(OC)cc(C(=O)O)cc1OC"
measured_number = 5


Shift focus to the following entry.
Query :: Could you tell me which Reduction in secondary oxidation (TBARS) in comparison with SOcontrol is on file for CCCOc1ccc(/C=C/C(=O)O)cc1OC ?
Result :: 5

----------
assay: Cell viability; assay type: cell-based; settings: human, HUVEC cells
Give measured IC50 at 24 h for each item. Keep answers brief.

# annotated cases, reported IC50 at 24 h shown
[[record]]
molecule = "CCCOc1ccc(/C=C/C(=O)O)cc1OC [Compound 3b]"
attribute_measured = "IC50 at 24 h"
result = "> 100 µM"

[[record]]
molecule = "CCCCCCCCCCOc1ccc(/C=C/C(=O)O)cc1OC [Compound 3f]"
attribute_measured = "IC50 at 24 h"
result = "55.6 µM"

[[record]]
molecule = "CCCCCOc1ccc(/C=C/C(=O)O)cc1OC [Compound 3c]"
attribute_measured = "IC50 at 24 h"
result = "> 100 µM"

[[record]]
molecule = "CCCCCOc1c(OC)cc(C(=O)O)cc1OC [Compound 5c, 3,5-Dimethoxy-4-(pentyloxy)benzoic acid]"
attribute_measured = "IC50 at 24 h"
result = "> 100 µM"

[[record]]
molecule = "CCCCCCCCOc1c(OC)cc(C(=O)O)cc1OC [Compound 5e, 3,5-Dimethoxy-4-(octyloxy)benzoic acid]"
attribute_measured = "IC50 at 24 h"
result = "> 100 µM"


Query :: For the molecule shown here, CCCCCCCCOc1ccc(/C=C/C(=O)O)cc1OC [Compound 3e] , give the reported IC50 at 24 h.
Result :: 90 µM

Source listed as paper PMC11250141.
